# Tested on: P388 leukemia ip, CD2F1 mice, survival T/C
# assay-notes: NCI In Vivo Anticancer Drug Screen. Data for tumor model P388 Leukemia (intraperitoneal) in CD2F1 (CDF1) mice
# condition-summary: endpoint: median survival time; dose: 12.5 mg/kg/injection; schedule: Q04DX002 (ip); vehicle: saline with Tween-80
Toxic doses and inconclusive results are not listed. How the source made its calls: active means survival T/C of 150% or more; inactive means T/C below 125% in these data.
Labels: active, inactive

[
  {
    "compound": "[Cl][Pt+2][Cl].[NH-]c1ccccc1[NH-]",
    "group-label": "active"
  },
  {
    "compound": "C=C1C(=O)OC2CC(C)C3C(OC(C)=O)CC(OC(C)=O)C3(C)CC12 (centres undefined)",
    "group-label": "inactive"
  },
  {
    "compound": "CC([NH-])C[NH-].[Br][Pt+2][Br] (centres undefined)",
    "group-label": "active"
  },
  {
    "compound": "CCCn1c2ccccc2c2c(C)c3cnccc3c(C)c21",
    "group-label": "inactive"
  }
]

====

# System: P388 leukemia ip, CD2F1 mice, survival T/C
# assay-notes: NCI In Vivo Anticancer Drug Screen. Data for tumor model P388 Leukemia (intraperitoneal) in CD2F1 (CDF1) mice
# condition-summary: endpoint: median survival time; dose: 100.0 mg/kg/injection; schedule: Q01DX009 (ip); vehicle: water; higher = longer survival
Toxic doses and inconclusive results are not listed.

[
  {
    "molecule": "O=C1c2cccc([N+](=O)[O-])c2C(=O)N1CC[P+](c1ccccc1)(c1ccccc1)c1ccccc1",
    "T/C": "107 % of control"
  },
  {
    "molecule": "CCOC(=O)/C=C/C(=O)NNS(=O)(=O)CCC(N)C(=O)O (centres undefined)",
    "T/C": "116 % of control"
  },
  {
    "molecule": "c1cc2c(ncn3nnnc23)[nH]1",
    "T/C": "118 % of control"
  },
  {
    "molecule": "CN1C2CCCC1CC1(C2)NC(=O)NC1=O (centres undefined)",
    "T/C": "100 % of control"
  }
]

====

# Tested on: P388 leukemia ip, CD2F1 mice, survival T/C
# assay-notes: NCI In Vivo Anticancer Drug Screen. Data for tumor model P388 Leukemia (intraperitoneal) in CD2F1 (CDF1) mice
# condition-summary: endpoint: median survival time; dose: 60.0 mg/kg/injection; schedule: Q01DX005 (ip); vehicle: saline with Tween-80; higher = longer survival
Toxic doses and inconclusive results are not listed.
metric: T/C

[
  {
    "compound": "O=S(=O)(CCCCl)SCCCCl",
    "measurement-target": "P388 leukemia ip, CD2F1 mice, survival T/C",
    "result": "96 % of control"
  },
  {
    "compound": "CCc1cc2nc3c(=O)[nH]c(=O)nc-3n(CCN(CCO)CCO)c2cc1CC",
    "measurement-target": "P388 leukemia ip, CD2F1 mice, survival T/C",
    "result": "99 % of control"
  },
  {
    "compound": "Cc1cc(C)cc(-n2cccc2C(=O)O)c1",
    "measurement-target": "P388 leukemia ip, CD2F1 mice, survival T/C",
    "result": "93 % of control"
  },
  {
    "compound": "Cc1ccc(NC(=O)/C(Cl)=C2/Sc3ccccc3NC2=O)cc1",
    "measurement-target": "P388 leukemia ip, CD2F1 mice, survival T/C",
    "result": "96 % of control"
  },
  {
    "compound": "N#CC(C#N)=C(O)/C(=C/c1ccccc1[N+](=O)[O-])NC(=O)c1ccccc1",
    "measurement-target": "P388 leukemia ip, CD2F1 mice, survival T/C",
    "result": "106 % of control"
  },
  {
    "compound": "N#CC(NCCNC(C#N)c1ccccc1)c1ccccc1 (centres undefined)",
    "measurement-target": "P388 leukemia ip, CD2F1 mice, survival T/C",
    "result": "96 % of control"
  },
  {
    "compound": "CCC(=NCCCCCCN=C(CC)c1cc(C)cc([N+](=O)[O-])c1O)c1cc(C)cc([N+](=O)[O-])c1O.[Fe]",
    "measurement-target": "P388 leukemia ip, CD2F1 mice, survival T/C",
    "result": "90 % of control"
  },
  {
    "compound": "COC(=O)C1=COC(C)C2CN3CCC4(C(=O)Nc5ccccc54)C3CC12 (centres undefined)",
    "measurement-target": "P388 leukemia ip, CD2F1 mice, survival T/C",
    "result": "101 % of control"
  },
  {
    "compound": "CCCCC(Nc1nncs1)Nc1nncs1",
    "measurement-target": "P388 leukemia ip, CD2F1 mice, survival T/C",
    "result": "90 % of control"
  },
  {
    "compound": "NC(CCCCCCCCCCCCC(N)C(=O)c1ccccc1)C(=O)c1ccccc1 (centres undefined)",
    "measurement-target": "P388 leukemia ip, CD2F1 mice, survival T/C",
    "result": "101 % of control"
  },
  {
    "compound": "COC(=O)C1=COC(C)C2CN3CCc4c([nH]c5ccccc45)C3CC12 (centres undefined)",
    "measurement-target": "P388 leukemia ip, CD2F1 mice, survival T/C",
    "result": "100 % of control"
  },
  {
    "compound": "CCOC(=O)c1c(OC)c(-c2ccccc2)c(=O)n2c3ccccc3n(C)c12",
    "measurement-target": "P388 leukemia ip, CD2F1 mice, survival T/C",
    "result": "95 % of control"
  },
  {
    "compound": "O=C(Cc1n[nH]c(=S)nc1CC(=O)c1ccccc1)c1ccccc1",
    "measurement-target": "P388 leukemia ip, CD2F1 mice, survival T/C",
    "result": "98 % of control"
  },
  {
    "compound": "O=C(Nc1ccc(C(=O)O)c(O)c1)Nc1ccccc1C(F)(F)F",
    "measurement-target": "P388 leukemia ip, CD2F1 mice, survival T/C",
    "result": "103 % of control"
  },
  {
    "compound": "Cc1ccc2cccc(OC(=O)Nc3cc(Cl)c(Cl)cc3Cl)c2n1",
    "measurement-target": "P388 leukemia ip, CD2F1 mice, survival T/C",
    "result": "93 % of control"
  },
  {
    "compound": "Nc1ncncc1C(C1=C(O)COC1=O)C1=C(O)COC1=O",
    "measurement-target": "P388 leukemia ip, CD2F1 mice, survival T/C",
    "result": "98 % of control"
  },
  {
    "compound": "Nc1nc(N2CCCCC2)c2nc(Cl)n(C3OC(CO)C(O)C3O)c2n1 (centres undefined)",
    "measurement-target": "P388 leukemia ip, CD2F1 mice, survival T/C",
    "result": "92 % of control"
  },
  {
    "compound": "CCOC(=O)C(C)(C)Oc1ccc(N=[N+]=[N-])cc1",
    "measurement-target": "P388 leukemia ip, CD2F1 mice, survival T/C",
    "result": "100 % of control"
  },
  {
    "compound": "Cc1cccc(NC(=S)NC2C(=O)Nc3ccccc32)c1 (centres undefined)",
    "measurement-target": "P388 leukemia ip, CD2F1 mice, survival T/C",
    "result": "102 % of control"
  },
  {
    "compound": "Nc1nnc(-c2ccc(Br)cc2)o1",
    "measurement-target": "P388 leukemia ip, CD2F1 mice, survival T/C",
    "result": "106 % of control"
  },
  {
    "compound": "CCCc1cc(=O)[nH]c(SCC(=O)O)n1",
    "measurement-target": "P388 leukemia ip, CD2F1 mice, survival T/C",
    "result": "100 % of control"
  },
  {
    "compound": "COC(=O)C1(CC(=O)c2ccccn2)NC(=S)NC(=O)C1C#N (centres undefined)",
    "measurement-target": "P388 leukemia ip, CD2F1 mice, survival T/C",
    "result": "100 % of control"
  },
  {
    "compound": "COc1ccc(C2COc3cc(O)c(O)cc3C2)cc1OC (centres undefined)",
    "measurement-target": "P388 leukemia ip, CD2F1 mice, survival T/C",
    "result": "101 % of control"
  },
  {
    "compound": "Cc1cc(=O)n2c(n1)sc1ccc3ccccc3c12",
    "measurement-target": "P388 leukemia ip, CD2F1 mice, survival T/C",
    "result": "100 % of control"
  }
]

====

# Tested on: P388 leukemia ip, CD2F1 mice, survival T/C
# assay-notes: NCI In Vivo Anticancer Drug Screen. Data for tumor model P388 Leukemia (intraperitoneal) in CD2F1 (CDF1) mice
# condition-summary: endpoint: median survival time; dose: 12.5 mg/kg/injection; schedule: Q01DX009 (ip); vehicle: saline
Inconclusive results and toxic doses are left out. Rule for the calls: active = survival T/C of 150% or more; inactive = T/C below 125% in these data.
Labels: active, inactive

[
  {
    "compound": "C[N+]1(CI)CC2CC(C1)C[N+](C)(CI)C2 (configuration not stated)",
    "group-label": "inactive"
  },
  {
    "compound": "CCN(CC)CCCCCNc1cc(Cl)c(Cl)cc1[N+](=O)[O-]",
    "group-label": "inactive"
  },
  {
    "compound": "CCCCC1C=CC2C(N1)N2C#N (configuration not stated)",
    "group-label": "inactive"
  },
  {
    "compound": "CCC(=O)NC1=C(N2CC2C)C(=O)C(NC(=O)CC)=C(N2CC2C)C1=O (configuration not stated)",
    "group-label": "active"
  },
  {
    "compound": "CNS(=O)(=O)c1ccc(Cl)cc1",
    "group-label": "inactive"
  },
  {
    "compound": "CN(C)CC(O)c1cc2ccccc2c2ccccc12 (configuration not stated)",
    "group-label": "inactive"
  },
  {
    "compound": "C1C[N-]CC[N-]CC[N-]CC[N-]1.[Cl][Rh][Cl]",
    "group-label": "inactive"
  },
  {
    "compound": "CCCCCCCCCCCCC1=NCC[N+]1(CCO)CC(O)COc1cc(Cl)c(Cl)cc1Cl (configuration not stated)",
    "group-label": "inactive"
  },
  {
    "compound": "Cc1cc(C)c[n+]([O-])c1",
    "group-label": "inactive"
  },
  {
    "compound": "CCCCCCCCCCCCCCCCCCOP(=O)([O-])OCC[N+](C)(C)C",
    "group-label": "inactive"
  },
  {
    "compound": "Oc1ccccc1C=NCCC[N-]CCCN=Cc1ccccc1O.[Co]",
    "group-label": "inactive"
  },
  {
    "compound": "Cc1cc2nc(N)sc2cc1C",
    "group-label": "inactive"
  }
]
